Test system: 616215-338-R-J1-PDC complex spheroids, viability % test/control;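 note: spheroids exposed to agents for 7 days; 100% = DMSO vehicle wells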
Assay: Anticancer human tumor 616215-338-R-J1-PDC patient-derived colon adenocarcinoma cell line growth inhibition [CLK]
Conditions: second compound 0.1 µM; first compound 0.0316 µM; stronger effect = lower value
Labelling: viability, T/C reported below 50% becomes 1; at or above becomes -1.

Consider the following illustrative entries.
Query block: Field: below-cutoff. Rule: recorded viability, T/C strictly less than 50%. Subject: CC(Nc1ccc2c(c1)OCCn1cc(N3C(=O)OCC3C(F)F)nc1-2)C(N)=O (stereo not given) + CNC(=O)c1ccc(Nc2nc(OC3CCCC3)c3c(-c4ccc5nc(C)oc5c4)c[nH]c3n2)c(OC)c1
Result block: -1

Query block: Field: below-cutoff. Rule: recorded viability, T/C strictly less than 50%. Subject: CCN1CCN(Cc2ccc(Nc3ncc(F)c(-c4cc(F)c5nc(C)n(C(C)C)c5c4)n3)nc2)CC1 + CNC(=O)c1ccc(Nc2nc(OC3CCCC3)c3c(-c4ccc5nc(C)oc5c4)c[nH]c3n2)c(OC)c1
Result block: -1

Query block: Field: below-cutoff. Rule: recorded viability, T/C strictly less than 50%. Subject: O=c1[nH]cc(F)c(=O)[nH]1 + CNC(=O)c1ccc(Nc2nc(OC3CCCC3)c3c(-c4ccc5nc(C)oc5c4)c[nH]c3n2)c(OC)c1
Result block: 1

Query block: Field: below-cutoff. Rule: recorded viability, T/C strictly less than 50%. Subject: COc1ccc([C@@H](O)c2cc(-c3ncnc4cc(N5CCOCC5)ccc34)c(F)cc2Cl)nn1 + CNC(=O)c1ccc(Nc2nc(OC3CCCC3)c3c(-c4ccc5nc(C)oc5c4)c[nH]c3n2)c(OC)c1
Result block: 1

From here, focus on the item given below.
Query block: Field: below-cutoff. Rule: recorded viability, T/C strictly less than 50%. Subject: O=C(c1cc(Cc2n[nH]c(=O)c3ccccc23)ccc1F)N1CCN(C(=O)C2CC2)CC1 + CN1CCN(c2cc(C(=O)Nc3cc4cc(-c5cnn(C)c5)ccc4cn3)ccn2)CC1
Result block: -1
